pEC50 listing for selected compounds.
- testSystem: recombinant human NR2F6 protein (Homo sapiens)
- protocol: Biochemical NR2F6 binding assay (EnSpire label-free)
- conditionSummary: label-free binding to immobilized purified recombinant human NR2F6; ligands 1 nM to 100 uM, 1% DMSO
pEC50: −log10 of the molar value. Counter-ions that a name gives are not always drawn.

Examples with their reported pEC50 follow.
Cc1ccc(O[C@H]2C[C@H](NC(=O)[C@@H]3CNC[C@H]3c3ccccc3)C2)cc1 (racemic) [Compound I-115, hydrochloride] : 5.00 to 6.00
O=C(Nc1cccc2c(Cl)nccc12)[C@H]1CNC[C@@H]1c1ccccc1 [Compound I-83, dihydrochloride] : 5.00 to 6.00
Cn1ccc2c(NC(=O)[C@H]3CNC[C@@H]3c3ccccc3)cccc2c1=O [Compound I-84, hydrochloride] : < 4.30

Can you share its pEC50? I mean this compound: O=C(Nc1cccc2cnccc12)O[C@@H]1CNC[C@H]1c1ccccc1 (racemic) 5.00 to 6.00

Can you share its pEC50? I mean this compound: O=C(Nc1cccc(Oc2ccc(C(F)(F)F)nc2)c1)[C@H]1CNC[C@@H]1c1ccccc1 [Compound I-119, dihydrochloride] 5.00 to 6.00

Can you share its pEC50? I mean this compound: O=C(N[C@H]1C[C@H](Oc2ccc(F)nc2)C1)[C@@H]1CNC[C@H]1c1ccccc1 (racemic) [Compound I-116, dihydrochloride] 4.30 to 5.00

Can you share its pEC50? I mean this compound: O=C(Nc1ccc(Nc2cccnc2)cc1)[C@H]1CNC[C@@H]1c1ccccc1 (racemic) [Compound I-107, dihydrochloride] < 4.30

* * *

- testSystem: recombinant human NR2F6 protein (Homo sapiens, UniProt P10588)
- Sequence (P10588 whole entry): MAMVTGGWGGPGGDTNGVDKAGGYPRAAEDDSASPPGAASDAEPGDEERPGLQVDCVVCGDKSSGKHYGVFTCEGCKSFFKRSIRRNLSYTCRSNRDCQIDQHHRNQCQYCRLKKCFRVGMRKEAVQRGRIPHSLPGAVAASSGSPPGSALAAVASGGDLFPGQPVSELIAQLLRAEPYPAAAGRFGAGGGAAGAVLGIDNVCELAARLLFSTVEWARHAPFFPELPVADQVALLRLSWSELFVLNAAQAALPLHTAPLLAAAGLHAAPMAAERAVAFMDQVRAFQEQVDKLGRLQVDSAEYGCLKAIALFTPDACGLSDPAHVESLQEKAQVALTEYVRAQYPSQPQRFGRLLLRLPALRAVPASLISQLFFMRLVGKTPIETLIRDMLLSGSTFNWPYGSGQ
- protocol: Biochemical NR2F6 binding assay (EnSpire label-free)
- conditionSummary: label-free binding to immobilized purified recombinant human NR2F6; ligands 1 nM to 100 uM, 1% DMSO
Counter-ions that a name gives are not always drawn.
EC50 listing for selected compounds.

Examples with their reported EC50 follow.
S=C(Nc1cccc2cnccc12)N[C@@H]1CNC[C@H]1c1ccccc1 (racemic) : 1 to 10 µM
CN(C(=O)[C@H]1CNC[C@@H]1c1ccccc1)c1cccc2cnccc12 [Compound I-57, dihydrochloride] : > 50 µM
Cc1nccc2c(NC(=O)[C@H]3CNC[C@@H]3c3ccccc3)cccc12 [Compound I-30, dihydrochloride] : < 1 µM
O=C(Nc1cccc2cnccc12)[C@@H]1CNC[C@H]1c1ccccc1 (racemic) [Compound I-21, dihydrochloride] : 1 to 10 µM
O=C(Nc1cccc2ccccc12)[C@@H]1CNC[C@H]1c1ccccc1 (racemic) [Compound I-16, hydrochloride] : 1 to 10 µM
Cc1nccc2c(NC(=O)[C@H]3CNC[C@@H]3c3ccc(C(F)(F)F)cc3)cccc12 [Compound I-96, dihydrochloride] : 1 to 10 µM

Now for another entry.
Form: Entry = S=C(Nc1cccc2cnccc12)N[C@@H]1CN(Cc2ccccc2)C[C@H]1c1ccccc1 (racemic) | System = recombinant human NR2F6 protein (Homo sapiens, UniProt P10588) | EC50 = ____ 1 to 10 µM

* * *

- testSystem: recombinant human NR2F6 protein (Homo sapiens)
- protocol: Biochemical NR2F6 binding assay (EnSpire label-free)
- conditionSummary: label-free binding to immobilized purified recombinant human NR2F6; ligands 1 nM to 100 uM, 1% DMSO
pEC50: −log10 of the molar value. Where a name gives a salt, the structure may show the parent alone.
measurementType: pEC50

N#Cc1ccc(Oc2cccc(NC(=O)[C@H]3CNC[C@@H]3c3ccccc3)c2)cc1 [Compound I-111, hydrochloride] : > 6.00
O=C(Nc1cccc(-c2cccnc2)c1)[C@H]1CNC[C@@H]1C1CCCCC1 (racemic) [Compound I-71, dihydrochloride] : 5.00 to 6.00
O=C(NC1CCN(c2ccc(F)cc2)CC1)[C@@H]1CNC[C@H]1c1ccccc1 [Compound I-121, dihydrochloride] : 5.00 to 6.00

Now for another entry.
Can you share its pEC50? I mean this compound: O=C(Nc1cccnc1)[C@H]1CNC[C@@H]1c1ccccc1 (racemic) [Compound I-19, dihydrochloride] < 4.30
